The reported numbers originate from ChEMBL document CHEMBL1156597.

- PROTOCOL: Cytotoxicity against human IGROV-ET cells after 48 hrs by SRB assay
- Format: functional
- MEASUREMENT CONTEXT: read-out: LC50 (the source's name)
READOUT TYPE: CC50 (nM)
Give bare numbers, in nM.

These solved cases illustrate the format of a correct answer.
C/C=C1\NC(=O)[C@H](Cc2ccc(Cl)c(Cl)c2)NC(=O)[C@@H](C(C)C)NC(=O)[C@@H]([C@H](C)CC)NC(=O)[C@H](NC(=O)[C@H](NC(=O)[C@H](CCCN)NC(=O)[C@H]2CCCN2C(=O)[C@H](NC(=O)[C@@H](NC(=O)[C@@H](NC(=O)[C@H](NC(=O)CC[C@@H](C)CC)C(C)C)[C@@H](C)O)C(C)C)C(C)C)[C@H](C)CC)[C@H](C)OC(=O)[C@H](C(C)C)NC1=O = 539
C/C=C1\NC(=O)[C@H](Cc2ccccc2)NC(=O)[C@H](C(C)C)NC(=O)[C@@H]([C@H](C)CC)NC(=O)[C@H](NC(=O)[C@H](NC(=O)[C@H](CCCN)NC(=O)[C@H]2CCCN2C(=O)[C@H](NC(=O)[C@@H](NC(=O)[C@@H](NC(=O)[C@H](NC(=O)CCCC(C)C)C(C)C)[C@@H](C)O)C(C)C)C(C)C)[C@H](C)CC)[C@H](C)OC(=O)[C@H](C(C)C)NC1=O = 1170

Prompt: Given the entry "C/C=C1\NC(=O)[C@H](Cc2ccccc2)NC(=O)[C@@H](C(C)C)NC(=O)[C@@H]([C@H](C)CC)NC(=O)[C@H](NC(=O)[C@H](NC(=O)[C@H](CCC(=O)O)NC(=O)[C@H]2CCCN2C(=O)[C@H](NC(=O)[C@@H](NC(=O)[C@@H](NC(=O)[C@H](NC(=O)CCCC(C)C)C(C)C)[C@@H](C)O)C(C)C)C(C)C)[C@H](C)CC)[C@H](C)OC(=O)[C@H](C(C)C)NC1=O" , report its measured CC50.
Completion: 3540
